The entries below come with measured PBM E-score of 8-mer values attached.
Tested on: SpTbr T-box DNA-binding domain (GST fusion);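 also: protein at 200 nM in PBS on universal double-stranded arrays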
Sequence: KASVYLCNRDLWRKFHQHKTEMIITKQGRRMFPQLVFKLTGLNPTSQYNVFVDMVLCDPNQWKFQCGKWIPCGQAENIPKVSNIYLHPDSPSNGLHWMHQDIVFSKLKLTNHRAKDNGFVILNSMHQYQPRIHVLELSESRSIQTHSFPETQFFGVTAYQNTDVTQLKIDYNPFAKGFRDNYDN
Experiment: PBM E-score of 8-mer (E-score (dimensionless, -0.5 to 0.5)); higher = stronger binding preference
Conditions: the construct has about 5 more residues each side
Over roughly 33,000 sequences, “E-score (dimensionless, -0.5 to 0.5)” has its median near -0.046; the highest 2% begin near 0.36. This excerpt belongs to a sample that is enriched for the highest values.
Answer with the value's number alone.

Here's what some known entries look like.
q: Indicate the recorded PBM E-score of 8-mer value for this sequence: AACCTGCG
a: 0.0936

q: Report measured PBM E-score of 8-mer; entry is AAGAGTAT
a: -0.163

q: Identify the reported PBM E-score of 8-mer for the following entry. GCCAATCC
a: -0.0232

Further cases:
q: # return recorded PBM E-score of 8-mer for input GGAAGCAA
a: -0.216

q: Identify measured PBM E-score of 8-mer associated with CACCTGCG
a: 0.425

q: Provide PBM E-score of 8-mer value for the following sequence: AAAGTAGA
a: -0.0436

q: Give PBM E-score of 8-mer for AACCTGCC
a: -0.0535

q: Look up and report measured PBM E-score of 8-mer for this entry: CGGTTATA
a: -0.00559

q: Specify measured PBM E-score of 8-mer for CCCATCGA .
a: -0.203

q: Please indicate PBM E-score of 8-mer recorded for CCGATAAA
a: -0.0119

q: Fill in reported PBM E-score of 8-mer for this entry: CACCTGCC
a: 0.395

---

System: SpTbr T-box DNA-binding domain (GST fusion);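 also: protein at 200 nM in PBS on universal double-stranded arrays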
Sequence: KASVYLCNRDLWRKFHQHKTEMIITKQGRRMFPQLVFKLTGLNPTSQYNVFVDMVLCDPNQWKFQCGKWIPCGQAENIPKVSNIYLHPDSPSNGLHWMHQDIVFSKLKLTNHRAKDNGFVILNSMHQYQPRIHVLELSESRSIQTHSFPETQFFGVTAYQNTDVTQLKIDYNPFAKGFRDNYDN
Experiment: PBM E-score of 8-mer (E-score (dimensionless, -0.5 to 0.5)); higher = stronger binding preference
Settings: target sequence: T-box / the construct has about 5 more residues each side
In all, about 33,000 sequences were measured (“E-score (dimensionless, -0.5 to 0.5)”: median about -0.046, highest 2% from about 0.36 on). The sample as a whole holds a higher share of the highest values than the screen did.
Would you mind labelling by PBM E-score of 8-mer? At or over 0.07 is label 1, under is label 0.

q: Textbook exercise: given the entry CACCTAGC , state whether its PBM E-score of 8-mer is greater than or equal to 0.07.
a: label 1

---

Overview of recorded PBM E-score of 8-mer for various sequences
Test system: SpTbr T-box DNA-binding domain (GST fusion);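 also: protein at 200 nM in PBS on universal double-stranded arrays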
Sequence: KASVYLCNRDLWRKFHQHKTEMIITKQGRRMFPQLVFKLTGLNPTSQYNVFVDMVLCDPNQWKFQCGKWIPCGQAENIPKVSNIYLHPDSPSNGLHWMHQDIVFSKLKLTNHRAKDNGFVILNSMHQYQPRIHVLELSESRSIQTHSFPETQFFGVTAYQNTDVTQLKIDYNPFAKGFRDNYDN
Test: PBM E-score of 8-mer (E-score (dimensionless, -0.5 to 0.5)); higher = stronger binding preference
Settings: target sequence: T-box / the construct has about 5 more residues each side
In all, about 33,000 sequences were measured (“E-score (dimensionless, -0.5 to 0.5)”: median about -0.046, highest 2% from about 0.36 on). This excerpt belongs to a sample that is enriched for the highest values.
Lab note: write the figure by itself, no unit.

Some sequences with recorded PBM E-score of 8-mer:
q: Fill in reported PBM E-score of 8-mer for this entry: AAAGGTGC
a: 0.414

q: Tell me measured PBM E-score of 8-mer for AAGGGTGA please.
a: 0.136

q: Provide PBM E-score of 8-mer value for the following sequence: GTCAAGGA
a: -0.0692

q: Given CACCATAC , respond with its PBM E-score of 8-mer.
a: -0.065

q: Using the record for CGTAAGTA , state its measured PBM E-score of 8-mer.
a: 0.169

q: Entry CCATGGAG needs its PBM E-score of 8-mer filled in; supply it.
a: -0.231

q: Please look at this sequence and report its PBM E-score of 8-mer: ACCTGTAC
a: -0.148

q: Specify measured PBM E-score of 8-mer for AAGGGTGT .
a: 0.383

***
q: For the sequence AAAGGTGA , give its reported PBM E-score of 8-mer.
a: 0.316

q: Indicate the recorded PBM E-score of 8-mer value for this sequence: ATACAGAC
a: -0.0432

q: Quickly give me recorded PBM E-score of 8-mer for GATGCCTA
a: -0.279

---

Tested on: SpTbr T-box DNA-binding domain (GST fusion);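 also: protein at 200 nM in PBS on universal double-stranded arrays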
Sequence: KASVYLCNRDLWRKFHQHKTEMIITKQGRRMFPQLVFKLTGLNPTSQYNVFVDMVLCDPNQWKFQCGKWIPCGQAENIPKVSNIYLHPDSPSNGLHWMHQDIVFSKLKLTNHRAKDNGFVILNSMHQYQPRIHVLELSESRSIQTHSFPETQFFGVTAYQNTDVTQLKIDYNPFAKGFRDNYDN
Experiment: PBM E-score of 8-mer (E-score (dimensionless, -0.5 to 0.5)); higher = stronger binding preference
Conditions: target sequence: T-box / the construct has about 5 more residues each side
Whole data set: some 33,000 sequences, median “E-score (dimensionless, -0.5 to 0.5)” near -0.046, cut for the highest 2% near 0.36. For the sample, the highest values were picked, then their nearest neighbours and some sequences at random.
So basically: PBM E-score of 8-mer at -0.06 or higher? That is yes (1). Lower than -0.06? That is no (0).

Look over these answered cases.
q: Does the sequence GTAGGTTA have recorded PBM E-score of 8-mer that is -0.06 or more?
a: no (0)

q: Form field: PBM E-score of 8-mer at least -0.06? Entry: GACGTTCC
a: no (0)

q: Does PBM E-score of 8-mer meet or surpass -0.06 for GCAGGTGA ?
a: yes (1)

q: Check this sequence for PBM E-score of 8-mer at or above -0.06: GCAGGTCA
a: yes (1)

q: hey, is PBM E-score of 8-mer for this one >= -0.06? ACAGGTTA
a: yes (1)

q: Is it the case that ATATTAAA has PBM E-score of 8-mer reaching or exceeding -0.06?
a: no (0)

q: Check the entry GTAGGTGA : does PBM E-score of 8-mer equal or exceed -0.06?
a: yes (1)

q: Check if PBM E-score of 8-mer >= -0.06 (inclusive). Item: ACAGGTGC
a: yes (1)

q: In plain terms: is recorded PBM E-score of 8-mer at least -0.06 for CCAGGTGA ?
a: yes (1)

q: Given CTCGGGAC , state whether its PBM E-score of 8-mer is at least -0.06.
a: no (0)

Next:
q: Please tell me: is the sequence AAACCGCG at or over -0.06 in terms of PBM E-score of 8-mer?
a: yes (1)

q: Reported PBM E-score of 8-mer reaches at least -0.06 for GCCCCTGA ?
a: no (0)

---

Test system: SpTbr T-box DNA-binding domain (GST fusion);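 also: protein at 200 nM in PBS on universal double-stranded arrays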
Sequence: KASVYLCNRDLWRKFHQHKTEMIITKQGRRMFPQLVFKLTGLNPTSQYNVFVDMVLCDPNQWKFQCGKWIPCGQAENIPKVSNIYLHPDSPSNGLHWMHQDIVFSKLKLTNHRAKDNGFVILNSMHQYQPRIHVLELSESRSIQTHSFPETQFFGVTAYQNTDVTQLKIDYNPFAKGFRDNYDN
Experiment: PBM E-score of 8-mer (E-score (dimensionless, -0.5 to 0.5)); Tbr is Tbrain of the sea star Patiria miniata (Pm) or the sea urchin Strongylocentrotus purpuratus (Sp); higher = stronger binding preference
Conditions: target sequence: T-box / the construct has about 5 more residues each side
Over roughly 33,000 sequences, “E-score (dimensionless, -0.5 to 0.5)” has its median near -0.046; the highest 2% begin near 0.36. Shown is part of a subset that was picked to be rich in the highest values.
Reported PBM E-score of 8-mer values are given for each entry in this list.
Output spec: single numeric token, no unit.

q: Give the value of PBM E-score of 8-mer reported for the following: ACTTGACT
a: 0.0832

q: Look up and report measured PBM E-score of 8-mer for this entry: ACGTGAGA
a: 0.331

q: Determine its reported PBM E-score of 8-mer: ACGTGTGC
a: 0.253

q: Look up and report measured PBM E-score of 8-mer for this entry: CACACCGA
a: 0.291

q: Kindly indicate its recorded PBM E-score of 8-mer. Item: TACACCTA
a: 0.377

Others:
q: Look up PBM E-score of 8-mer of CCCACCTA and report it.
a: 0.282

q: Write down PBM E-score of 8-mer measured for item CCGTTCAC
a: 0.367

q: Given the sequence ACGTGTGA , write its reported PBM E-score of 8-mer.
a: 0.48

q: Entry AACACCTC needs its PBM E-score of 8-mer filled in; supply it.
a: 0.481

q: Look up PBM E-score of 8-mer of GATACCCC and report it.
a: -0.273

q: Identify the reported PBM E-score of 8-mer for the following entry. GCGTGAGA
a: 0.361

q: Give reported PBM E-score of 8-mer value for GCGTGTGA
a: 0.399

q: Let me know recorded PBM E-score of 8-mer for AACACCGA , thanks.
a: 0.228
